protocol-details: Loss of bioactivity of the solid on storage at elevated temperatures
Assay type: physicochemical
assay-setup: solid, 100° C., 24 hours
observation-type: degraded at 24 h

Exam item: Give reported degraded at 24 h value for N[C@@H](C(=O)NC1C(=O)N2C(C(=O)O)=C(CSc3cnn[nH]3)CSC12)c1ccc(O)cc1 (stereo partly shown) [propylene glycol solvate]
Marked response: < 6%

----------
protocol-details: physchem
Format: physicochemical
assay-setup: aqueous solution, pH 7.1
observation-type: degraded at […] (%)
Hi! Could you send only the number? It should be in %, unit omitted.

Exam item: Give the measured degraded at […] for N[C@@H](C(=O)N[C@@H]1C(=O)N2C(C(=O)O)=C(CSc3c[nH]nn3)CS[C@H]12)c1ccc(O)cc1 [BL-S640 Sesquihydrate]
Marked response: 0.8
